Target: PI3Kδ (p110δ/p85α) (Homo sapiens (Human), UniProt O00329)
Sequence (O00329 whole entry): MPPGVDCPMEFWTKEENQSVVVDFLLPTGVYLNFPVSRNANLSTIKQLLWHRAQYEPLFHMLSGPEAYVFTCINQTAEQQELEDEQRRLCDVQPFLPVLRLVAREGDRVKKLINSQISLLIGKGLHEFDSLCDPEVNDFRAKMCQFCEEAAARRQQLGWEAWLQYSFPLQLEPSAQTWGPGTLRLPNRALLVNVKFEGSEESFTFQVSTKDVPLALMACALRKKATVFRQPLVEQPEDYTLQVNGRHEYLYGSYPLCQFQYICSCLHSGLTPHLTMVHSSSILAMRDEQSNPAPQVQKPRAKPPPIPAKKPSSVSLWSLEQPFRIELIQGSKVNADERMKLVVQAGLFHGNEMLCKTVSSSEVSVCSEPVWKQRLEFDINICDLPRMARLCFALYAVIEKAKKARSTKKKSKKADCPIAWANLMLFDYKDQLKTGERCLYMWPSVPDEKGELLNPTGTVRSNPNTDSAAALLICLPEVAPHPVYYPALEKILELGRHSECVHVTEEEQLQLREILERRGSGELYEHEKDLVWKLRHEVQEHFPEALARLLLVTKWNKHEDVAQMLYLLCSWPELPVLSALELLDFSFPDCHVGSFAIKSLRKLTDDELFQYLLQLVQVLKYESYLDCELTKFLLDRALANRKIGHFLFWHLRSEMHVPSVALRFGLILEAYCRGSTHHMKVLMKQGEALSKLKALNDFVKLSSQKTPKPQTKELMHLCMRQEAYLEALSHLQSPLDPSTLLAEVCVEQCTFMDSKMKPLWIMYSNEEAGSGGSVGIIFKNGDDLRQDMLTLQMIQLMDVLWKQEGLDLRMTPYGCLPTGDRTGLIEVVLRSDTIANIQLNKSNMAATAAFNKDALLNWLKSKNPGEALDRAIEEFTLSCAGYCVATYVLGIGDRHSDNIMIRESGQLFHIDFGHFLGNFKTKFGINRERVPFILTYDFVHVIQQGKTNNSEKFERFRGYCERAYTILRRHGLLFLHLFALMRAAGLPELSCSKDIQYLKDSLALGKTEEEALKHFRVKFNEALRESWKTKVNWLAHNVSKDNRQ
Sequence (P27986 whole entry partner): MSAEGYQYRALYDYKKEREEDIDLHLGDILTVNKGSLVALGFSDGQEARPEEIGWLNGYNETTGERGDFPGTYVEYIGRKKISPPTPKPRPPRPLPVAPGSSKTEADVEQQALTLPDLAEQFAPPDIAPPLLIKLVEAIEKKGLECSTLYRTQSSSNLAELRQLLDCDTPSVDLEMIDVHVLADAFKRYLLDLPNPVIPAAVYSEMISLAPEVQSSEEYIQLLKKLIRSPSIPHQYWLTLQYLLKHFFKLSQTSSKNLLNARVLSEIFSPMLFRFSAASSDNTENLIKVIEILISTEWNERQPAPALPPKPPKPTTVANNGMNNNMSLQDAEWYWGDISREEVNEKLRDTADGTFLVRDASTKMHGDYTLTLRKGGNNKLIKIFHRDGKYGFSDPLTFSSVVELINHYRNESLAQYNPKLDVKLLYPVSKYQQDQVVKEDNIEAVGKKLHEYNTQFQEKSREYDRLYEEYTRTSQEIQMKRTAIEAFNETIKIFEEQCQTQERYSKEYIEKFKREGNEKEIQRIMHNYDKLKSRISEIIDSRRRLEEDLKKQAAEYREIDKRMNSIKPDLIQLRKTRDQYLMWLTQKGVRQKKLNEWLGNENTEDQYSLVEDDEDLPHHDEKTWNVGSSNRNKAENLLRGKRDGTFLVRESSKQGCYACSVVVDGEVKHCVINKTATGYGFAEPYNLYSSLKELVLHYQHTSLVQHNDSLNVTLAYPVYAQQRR
Test: PI3Kδ Scintillation Proximity Assay
Assay type: biochemical
Details: 20 μM PIP2, 2 μM ATP, 3.4 nM PI3Kδ, 120 min, room temperature
pIC50: −log10 of the molar value. Counter-ions that a name gives are not always drawn.
In this section, each of the compounds is paired with its reported pIC50.

{"COMPOUND": "Cc1n[nH]cc1-c1nc(-c2cc3c(c(S(C)(=O)=O)c2)C(=O)N([C@@H](C)C2CC2)C3)cnc1N [Example 10, trifluoroacetate salt]", "pIC50": "5.70 to 6.30"}

Please look at the following compound next.
The compound listed as C[C@@H](C1CC1)N1Cc2cc(-c3cnc(N)c(C(=O)NC4CCOCC4)n3)cc(S(C)(=O)=O)c2C1=O [Example 3, trifluoroacetate salt] has a reported pIC50 of 6.30 to 7.00

====

Target: PI3Kγ (p110γ) (Homo sapiens (Human), UniProt P48736)
Sequence (P48736 whole entry): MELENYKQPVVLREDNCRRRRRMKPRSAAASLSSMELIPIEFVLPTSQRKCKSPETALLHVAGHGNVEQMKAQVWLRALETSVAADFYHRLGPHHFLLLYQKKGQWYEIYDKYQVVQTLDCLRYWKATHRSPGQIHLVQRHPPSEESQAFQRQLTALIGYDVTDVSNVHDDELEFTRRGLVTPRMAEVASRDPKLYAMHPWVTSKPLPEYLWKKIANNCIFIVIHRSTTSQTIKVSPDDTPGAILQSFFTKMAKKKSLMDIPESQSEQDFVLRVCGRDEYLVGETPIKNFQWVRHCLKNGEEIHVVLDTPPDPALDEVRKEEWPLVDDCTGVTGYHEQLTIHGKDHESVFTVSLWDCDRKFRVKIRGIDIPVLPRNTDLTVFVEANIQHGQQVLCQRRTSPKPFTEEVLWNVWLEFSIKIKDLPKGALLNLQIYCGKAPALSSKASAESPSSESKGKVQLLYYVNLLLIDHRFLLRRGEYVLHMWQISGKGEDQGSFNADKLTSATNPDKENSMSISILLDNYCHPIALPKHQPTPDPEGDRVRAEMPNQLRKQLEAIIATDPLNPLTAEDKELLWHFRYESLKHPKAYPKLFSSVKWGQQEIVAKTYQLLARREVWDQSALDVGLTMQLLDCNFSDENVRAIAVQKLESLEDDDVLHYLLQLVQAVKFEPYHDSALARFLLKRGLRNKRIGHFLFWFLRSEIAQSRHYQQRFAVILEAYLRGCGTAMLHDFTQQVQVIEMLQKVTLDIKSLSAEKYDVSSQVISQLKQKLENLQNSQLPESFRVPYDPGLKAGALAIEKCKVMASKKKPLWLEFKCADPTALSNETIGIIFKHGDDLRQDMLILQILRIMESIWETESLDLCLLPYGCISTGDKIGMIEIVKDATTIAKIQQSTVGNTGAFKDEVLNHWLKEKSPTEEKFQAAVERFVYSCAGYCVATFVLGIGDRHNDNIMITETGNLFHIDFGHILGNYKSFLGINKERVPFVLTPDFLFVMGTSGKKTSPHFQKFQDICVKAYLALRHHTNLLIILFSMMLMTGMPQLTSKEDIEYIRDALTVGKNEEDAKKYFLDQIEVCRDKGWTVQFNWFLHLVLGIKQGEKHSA
pIC50: −log10 of the molar value. Counter-ions that a name gives are not always drawn.
In this section, each of the compounds is paired with its reported pIC50.

The cases that follow already have their pIC50 on record.
{"COMPOUND": "CC(C1CC1)n1nc2ccc(-c3cnc(N)cn3)cc2n1 (stereo not shown) [Example 6, trifluoroacetate]", "pIC50": "5.70 to 6.30"}
{"COMPOUND": "C[C@@H](C1CC1)N1Cc2cc(-c3cnc(N)c(C4CN(C(=O)C5(C(F)(F)F)CC5)C4)n3)ccc2C1=O [Example 13, trifluoroacetate salt]", "pIC50": "≥ 7.00"}
{"COMPOUND": "C[C@@H](C1CC1)N1Cc2cc(-c3cnc(N)c(C(=O)NC4CCOCC4)n3)ccc2C1=O [Example 1, trifluoroacetate salt]", "pIC50": "≥ 7.00"}

Please look at the following compound next.
Value (pIC50, PI3Kγ (p110γ) (Homo sapiens (Human), UniProt P48736)) for record CC(C)NC(=O)c1nc(-c2cc3c(c(S(C)(=O)=O)c2)C(=O)N([C@@H](C)C2CC2)C3)cnc1N [Example 4, trifluoroacetate salt] = ≥ 7.00

====

Tested on: Phosphorylated Ribosomal Protein S6 (RPS6) in THP-1 cells
Test: THP-1 RPS6 ELISA Assay
Assay type: cell-based
Conditions: Homo sapiens; serum starved THP-1 cells, 2 hours with compound, then 10 nM MCP-1 for 15 minutes; Phospho-RPS6 ELISA; read-out: PI3Kγ_THP1_RPS6_ELISA IC50
Where a name gives a salt, the structure may show the parent alone.
RECORDED ENDPOINT: IC50

The cases that follow already have their IC50 on record.
{"COMPOUND": "C[C@@H](C1CC1)N1Cc2cc(-c3cnc(N)c(-n4cncn4)n3)cc(S(C)(=O)=O)c2C1=O [Example 12, trifluoroacetate salt]", "IC50": "≥ 1000 nM"}
{"COMPOUND": "C[C@@H](C1CC1)N1Cc2cc(-c3cnc(N)c(-c4ccnn4C)n3)cc(S(C)(=O)=O)c2C1=O [Example 7, trifluoroacetate salt]", "IC50": "≥ 1000 nM"}
{"COMPOUND": "C[C@@H](C1CC1)N1Cc2cc(-c3cnc(N)c(-c4cnn(C)c4)n3)cc(S(C)(=O)=O)c2C1=O [Example 8, trifluoroacetate salt]", "IC50": "500 to 1000 nM"}
{"COMPOUND": "Cc1ncc(-c2nc(-c3cc4c(c(S(C)(=O)=O)c3)C(=O)N([C@@H](C)C3CC3)C4)cnc2N)s1 [Example 9, trifluoroacetate salt]", "IC50": "500 to 1000 nM"}
{"COMPOUND": "C[C@@H](C1CC1)N1Cc2cc(-c3cnc(N)c(C(=O)NC4CCOCC4)n3)cc(S(C)(=O)=O)c2C1=O [Example 3, trifluoroacetate salt]", "IC50": "100 to 500 nM"}

The compound listed as CC(C)NC(=O)c1nc(-c2cc3c(c(S(C)(=O)=O)c2)C(=O)N([C@@H](C)C2CC2)C3)cnc1N [Example 4, trifluoroacetate salt] has a reported IC50 of ≥ 1000 nM
